B1: RHOBTB3 (parent)
chain: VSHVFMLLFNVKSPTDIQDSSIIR

Variants of: B1
MEASUREMENT DESCRIPTION: protein stability index of a GFP-peptide fusion (GPS, HEK-293T) (PSI 1-6); higher = more stable;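 also: lentivirally expressed fusions sorted by FACS into six bins by GFP to DsRed ratio, PSI derived from sequencing read proportions per bin multiplied by bin number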
MEASUREMENT CONTEXT: c terminus: a fixed tail appended
MEASUREMENT NAME: protein stability index
Form field (numeric): enter value without unit.

* VSHVFMLLFNVVSPTDIQDSSIIR | 4.26

IN: Which protein stability index is reported for this variant? VSHVFMLLYNVKSPTDIQDSSIIR
OUT: 4.01

IN: // next record WSHVFMLLFNVKSPTDIQDSSIIR
OUT: 3.32

IN: // next record VSHEFMLLFNVKSPTDIQDSSIIR
OUT: 1.3

IN: // next record VSHVFMLLNNVKSPTDIQDSSIIR
OUT: 1.93

IN: // next record VSHVFMLLFNVKSPTDCQDSSIIR
OUT: 3.7

IN: // next record VSHVFMLLFNVKSWTDIQDSSIIR
OUT: 3.15

IN: // next record VSHVFMLLFNFKSPTDIQDSSIIR
OUT: 2.74

Origin of measurements: the supplement of paper PMC10567573
